Molecular target: Fes (UniProt P07332)
Sequence (P07332 whole entry, looked up): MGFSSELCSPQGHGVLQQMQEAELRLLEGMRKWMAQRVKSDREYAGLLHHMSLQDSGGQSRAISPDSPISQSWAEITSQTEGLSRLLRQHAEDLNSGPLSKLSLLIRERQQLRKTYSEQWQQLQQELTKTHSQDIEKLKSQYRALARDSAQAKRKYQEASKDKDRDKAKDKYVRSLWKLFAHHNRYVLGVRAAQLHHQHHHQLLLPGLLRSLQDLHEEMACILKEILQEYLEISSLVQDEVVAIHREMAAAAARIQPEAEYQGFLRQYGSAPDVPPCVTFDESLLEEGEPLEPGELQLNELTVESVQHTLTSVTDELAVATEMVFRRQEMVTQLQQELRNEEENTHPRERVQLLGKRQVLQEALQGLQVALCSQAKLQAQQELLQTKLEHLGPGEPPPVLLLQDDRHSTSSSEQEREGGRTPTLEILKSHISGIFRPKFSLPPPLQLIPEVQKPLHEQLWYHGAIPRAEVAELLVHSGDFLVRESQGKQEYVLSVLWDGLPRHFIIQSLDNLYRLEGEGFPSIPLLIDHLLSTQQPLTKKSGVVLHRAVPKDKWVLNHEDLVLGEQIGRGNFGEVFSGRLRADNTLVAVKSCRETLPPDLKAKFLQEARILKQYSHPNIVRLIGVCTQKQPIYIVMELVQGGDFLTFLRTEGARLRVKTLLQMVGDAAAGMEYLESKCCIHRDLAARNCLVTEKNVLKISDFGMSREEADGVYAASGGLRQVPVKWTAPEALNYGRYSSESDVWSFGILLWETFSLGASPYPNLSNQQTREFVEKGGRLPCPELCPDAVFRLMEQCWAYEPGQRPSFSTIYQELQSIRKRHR
Assay: phosphorylation enrichment, bacterial display (enrichment ratio); higher = better substrate or ligand; peptides without Tyr show the background;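 further: 11-residue human phosphosite peptides and single-mutation variants displayed on the E. coli surface, counted by deep sequencing, each peptide's frequency after selection divided by its frequency in the unselected input library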;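 further: frequency after pTyr selection over input frequency; kinase dosed for 20-30% of maximal phosphorylation in three min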
# reported phosphorylation enrichment; entries follow
Lab note: record the figure alone, no unit after it.

Below, each entry is followed by its recorded phosphorylation enrichment result.
seq | phosphorylation enrichment
RHFSSYSQMEN [PKP1_Y120_R116H] | 1
TYGVVYKARNK [CDK2_Y19] | 0.691
RAMPVYKKAEH [TP63_Y231] | 0.379

Exercise: // query phosphorylation enrichment value for entry TFGVLYKARNK [CDK2_Y19_V18L_YF]
Solution: 0.906

Exercise: // query phosphorylation enrichment value for entry ADVLDYIKALN [HPRT1_Y81_L78V]
Solution: 0.814

Exercise: // query phosphorylation enrichment value for entry LNCIFYKDQTG [RS1_Y166_W163C_YF]
Solution: 2.08

Exercise: // query phosphorylation enrichment value for entry KTKLGYSPLHQ [ANK1_Y735]
Solution: 0.48

Exercise: // query phosphorylation enrichment value for entry NGPDVYVLPLT [AATK_Y93]
Solution: 0.792
